# test.system: M2 muscarinic receptor (Rattus norvegicus, UniProt P10980)
# Construct: Submandibular glands and heart were isolated and placed in ice cold homogenising buffer; from tissue; host or cells: rat heart membrane homogenate
# Sequence (P10980 1-466): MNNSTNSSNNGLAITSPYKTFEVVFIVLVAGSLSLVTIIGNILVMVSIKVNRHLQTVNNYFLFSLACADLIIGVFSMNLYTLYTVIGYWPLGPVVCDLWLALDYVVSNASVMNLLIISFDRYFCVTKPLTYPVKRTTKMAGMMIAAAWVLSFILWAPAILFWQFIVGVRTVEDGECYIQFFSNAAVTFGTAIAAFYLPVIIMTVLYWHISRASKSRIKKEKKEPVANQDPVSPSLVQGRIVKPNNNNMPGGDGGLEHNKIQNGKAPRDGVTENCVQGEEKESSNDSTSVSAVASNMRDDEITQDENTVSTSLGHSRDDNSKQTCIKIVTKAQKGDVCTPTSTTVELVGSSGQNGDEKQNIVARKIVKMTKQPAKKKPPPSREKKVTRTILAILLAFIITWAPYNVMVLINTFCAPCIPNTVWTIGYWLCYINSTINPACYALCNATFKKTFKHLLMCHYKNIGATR
# assay.info: [3H]-N-methylscopolamine radioligand binding assay, rat heart membranes
# condition.details: Table III; rat heart, [3H]NMS; read-out: M2 Ki (nm)
pKi: −log10 of the molar value.

# compound, test.system, pKi
measured = [
    ("O=C(N[C@H]1[C@@H]2CN(Cc3ccccc3)C[C@@H]21)C(O)(c1ccc(Oc2ccccc2)cc1)C1CCCCC1 (some centres unmarked)", "M2 muscarinic receptor (Rattus norvegicus, UniProt P10980)", "< 6.00"),
    ("O=C(NC1C2CN(Cc3ccc(Br)cc3)CC21)C(O)(c1ccccc1)C1CCCCC1 (centres unmarked)", "M2 muscarinic receptor (Rattus norvegicus, UniProt P10980)", "< 6.00"),
    ("O=C(N[C@H]1[C@@H]2CN(C3CC3)C[C@@H]21)C(O)(c1ccccc1)C1CCCCC1 (some centres unmarked)", "M2 muscarinic receptor (Rattus norvegicus, UniProt P10980)", "< 6.00"),
    ("O=C(N[C@H]1[C@@H]2CN(CCc3ccc4c(c3)CCO4)C[C@@H]21)C(O)(c1ccccc1)C1CCCC1 (some centres unmarked)", "M2 muscarinic receptor (Rattus norvegicus, UniProt P10980)", "< 6.00"),
    ("O=C(NC1C2CN(Cc3cc(F)cc(F)c3)CC21)C(O)(c1ccccc1)C1CCCCC1 (centres unmarked)", "M2 muscarinic receptor (Rattus norvegicus, UniProt P10980)", "< 6.00"),
]

meta.source: patent US7232835B2
